Test system: Fibroblast
Assay: Incucyte cell viability with human fibroblast; note: unitless GR value; below 1 slowed growth and below 0 cell loss
Assay type: toxicity, cell-based
Settings: 12 h, 10 µM, compound concentration 10 uM, replicate number 2, timepoint 12 hours
Below is a list of entries, each paired with its recorded Growth Rate value.
Property: Growth Rate

molecule=Cc1cnc(-c2cc(N3CCN(C(=O)CCS(C)(=O)=O)CC3)ncc2Cl)c(C)c1 property="Growth Rate" observed=0.17
molecule=CCCCCCNC(=O)Nc1ccc(S(=O)(=O)Nc2ccc(CCNC[C@H](O)COc3ccc(O)cc3)cc2)cc1 property="Growth Rate" observed=0.47
molecule=CC(C)Cc1ccc([C@@H](C)C(=O)NS(C)(=O)=O)cc1 property="Growth Rate" observed=0.66
molecule="OCc1cc(C(O)CNCCCCCCOCCCCc2ccccc2)ccc1O (stereo not given)" property="Growth Rate" observed=0.59
molecule="CN1C[C@@H](NS(=O)(=O)N(C)C)C[C@@H]2c3cccc4c3c(cn4C)C[C@H]21.Cl [MESULERGINE HYDROCHLORIDE]" property="Growth Rate" observed=0.81
molecule=COc1c(C)cc(NC(=O)c2nn(Cc3ccc(F)cc3)c3c2CN(C(=O)c2ccc[nH]2)C[C@]3(C)C(N)=O)cc1C property="Growth Rate" observed=0.15
molecule=O=c1ccn([C@@H]2O[C@H](COP(=O)([O-])OP(=O)([O-])OP(=O)([O-])O)[C@@H](O)[C@H]2O)c(=O)[nH]1.[Na+].[Na+].[Na+] property="Growth Rate" observed=0.75
molecule=NC(N)=Nc1nc(CSCCC(N)=NS(N)(=O)=O)cs1 property="Growth Rate" observed=0.17
molecule=CCc1nnc(NS(=O)(=O)c2ccc(NC(=S)NC(=O)/C=C/c3ccc(F)cc3)cc2)s1 property="Growth Rate" observed=0.53
molecule=CC(C)(O)C(=O)N1CCN(c2ccc(C(F)(F)F)c(C3=C(c4c[nH]c5ccccc45)C(=O)NC3=O)c2)CC1 property="Growth Rate" observed=0.04
